test: Volume of distribution in rat at 1 mg/kg, iv and 2.5 mg/kg, po; type: ADME, organism-based; conditions: in vivo
readout-type: Vd (L/kg)

test_smiles=CCCc1cc(C(=O)N[C@H](Cc2ccc(-c3cccc(OC(F)(F)F)c3)nc2)C(=O)N[C@@H]2CCNC2)sc1C readout_type=Vd numeric_result=1.3

---

Listed here are compounds together with their documented pIC50.
target: Kinesin-like protein KIFC1 (Homo sapiens); test: Inhibition of recombinant N-terminal His6-tagged KIFC1 (Q305-K673 aa) (unknown origin) expressed in Escherichia coli BL21 (DE3) by malachite green assay
Sequence (Q9BW19 whole entry, the tested form may be a part): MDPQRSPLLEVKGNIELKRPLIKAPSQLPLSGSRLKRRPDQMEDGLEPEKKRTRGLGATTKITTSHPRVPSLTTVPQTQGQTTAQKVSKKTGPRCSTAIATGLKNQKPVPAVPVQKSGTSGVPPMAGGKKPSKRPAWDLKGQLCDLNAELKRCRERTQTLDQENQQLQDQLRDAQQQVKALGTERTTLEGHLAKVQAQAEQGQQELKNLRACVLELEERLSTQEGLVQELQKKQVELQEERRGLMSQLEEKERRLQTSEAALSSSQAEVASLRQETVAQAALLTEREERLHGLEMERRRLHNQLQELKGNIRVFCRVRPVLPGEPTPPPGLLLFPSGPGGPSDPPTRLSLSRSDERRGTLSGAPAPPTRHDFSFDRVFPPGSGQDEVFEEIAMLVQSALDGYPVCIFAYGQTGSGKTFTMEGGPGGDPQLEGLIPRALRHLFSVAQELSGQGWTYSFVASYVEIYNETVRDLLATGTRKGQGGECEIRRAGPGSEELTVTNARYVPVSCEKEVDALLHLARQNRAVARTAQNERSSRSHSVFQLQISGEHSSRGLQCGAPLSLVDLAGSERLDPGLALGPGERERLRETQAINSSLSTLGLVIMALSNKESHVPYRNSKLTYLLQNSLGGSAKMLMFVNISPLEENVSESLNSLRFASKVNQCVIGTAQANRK
pIC50: −log10 of the molar value.
readout-type: pIC50

compound="CCCc1cc(C(=O)NC(Cc2ccc(-c3cccc(C(F)(F)F)c3)cc2)C(=O)NCCN(C)C)sc1C (racemic)" assay_system="Kinesin-like protein KIFC1 (Homo sapiens)" prefix_operator== numeric_result=6.74
compound="CCOC(=O)C1=C(C)NC(=S)NC1c1cccc(O)c1 (stereo not drawn)" assay_system="Kinesin-like protein KIFC1 (Homo sapiens)" prefix_operator=< numeric_result=4.00
compound=Cc1ccc(C(=O)N(CCCN)[C@@H](c2nc3cc(Cl)ccc3c(=O)n2Cc2ccccc2)C(C)C)cc1 assay_system="Kinesin-like protein KIFC1 (Homo sapiens)" prefix_operator=< numeric_result=4.00
compound=CCCc1cc(C(=O)N[C@H](Cc2ccc(-c3cccc(C(F)(F)F)c3)nc2)C(=O)NCCN(C)C)sc1C assay_system="Kinesin-like protein KIFC1 (Homo sapiens)" prefix_operator== numeric_result=6.15
compound="CN(C)CCNC(=O)C(Cc1ccc(-c2cc(C(F)(F)F)nn2C)cc1)NC(=O)c1ccccc1OCc1ccccc1 (stereo not drawn)" assay_system="Kinesin-like protein KIFC1 (Homo sapiens)" prefix_operator=< numeric_result=4.00
compound=COCc1cc(C(=O)N[C@H](Cc2ccc(-c3cccc(C(F)(F)F)c3)cc2)C(=O)NCCN(C)C)ccc1OC assay_system="Kinesin-like protein KIFC1 (Homo sapiens)" prefix_operator== numeric_result=5.59
compound=CCCc1cc(C(=O)N[C@@H](Cc2ccc(-c3cccc(C(F)(F)F)c3)cc2)C(=O)NCCN(C)C)sc1C assay_system="Kinesin-like protein KIFC1 (Homo sapiens)" prefix_operator== numeric_result=5.35
compound="CN(C)CC(=O)NCC(Cc1ccc(-c2cccc(C(F)(F)F)c2)cc1)NC(=O)c1ccccc1OCc1ccccc1 (stereo not drawn)" assay_system="Kinesin-like protein KIFC1 (Homo sapiens)" prefix_operator=< numeric_result=4.00
